- assay-system: GST tagged LXRbeta LBD (ligand binding domain) (Homo sapiens)
- assay-protocol: LanthaScreen TR-FRET Liver X Receptor Coactivator Assay, LXR beta-LBD (co-activator recruitment; IP and % Emax relative to T0901317)
- conditions: Inflection Point of co-activator recruitment, LXR beta-LBD, TR-FRET

{"columns": ["structure-string", "assay-system", "EC50, nM"],
 "data": [
  ["CN(C)C(=O)c1ccc(N2CCC(CCCN(C)C(=O)C3(c4ccccc4)CCC3)CC2)nc1Cl", "GST tagged LXRbeta LBD (ligand binding domain) (Homo sapiens)", 110],
  ["CN(C)C(=O)c1ccc(N2CCC(CCCN(C)C(=O)[C@@]3(C(F)(F)F)CCCO3)CC2)nc1Cl", "GST tagged LXRbeta LBD (ligand binding domain) (Homo sapiens)", 144],
  ["COc1cccc([C@](O)(C(=O)N(C)C[C@@H]2C[C@@H]2CC2CCN(c3ccc(C(=O)N(C)C)c(Cl)n3)CC2)C(F)(F)F)c1", "GST tagged LXRbeta LBD (ligand binding domain) (Homo sapiens)", 518],
  ["CC(C)N(C)C(=O)c1ccc(N2CCC3(CC2)C[C@@H]3CCN(C)C(=O)[C@](O)(c2ccccc2)C(F)(F)F)cc1Cl", "GST tagged LXRbeta LBD (ligand binding domain) (Homo sapiens)", 14]
]}

* * *

Each record here notes measured Emax.
- assay-system: GST tagged LXRbeta LBD (ligand binding domain) (Homo sapiens, UniProt P55055)
- Construct: purchased Invitrogen pv4658.pps
- Sequence (P55055 222-460 limits assumed): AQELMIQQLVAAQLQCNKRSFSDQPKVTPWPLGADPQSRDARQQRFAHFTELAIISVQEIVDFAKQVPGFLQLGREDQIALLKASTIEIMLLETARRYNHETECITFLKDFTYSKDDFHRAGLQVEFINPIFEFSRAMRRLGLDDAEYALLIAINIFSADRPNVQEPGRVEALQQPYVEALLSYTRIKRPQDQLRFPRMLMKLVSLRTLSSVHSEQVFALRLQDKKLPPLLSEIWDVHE
- assay-protocol: LanthaScreen TR-FRET Liver X Receptor Coactivator Assay, LXR beta-LBD (co-activator recruitment; IP and % Emax relative to T0901317)
- Type: biochemical
- conditions: efficacy at max dose in relation to reference T0901317, LXR beta-LBD; read-out: LXR beta actiivty at max dose (%)
observation-type: Emax (%)

{"columns": ["structure-string", "observation-type", "numeric-readout"],
 "data": [
  ["CN(C)C(=O)c1ccc(N2CCC(CCCN(C)C(=O)[C@]3(c4ccccc4)CCCO3)CC2)nc1Cl", "Emax", 71],
  ["COc1cccc([C@@](O)(C(=O)Nc2ccc(C3CCN(c4ccc(C(=O)N(C)C)c(Cl)c4)CC3)cc2)C(F)(F)F)c1", "Emax", 67],
  ["CN(C)C(=O)c1ccc(N2CCC3(CC2)C[C@@H]3CCN(C)C(=O)[C@](O)(c2cccc(OC3CC3)c2)C(F)(F)F)cc1Cl", "Emax", 61],
  ["CN(C)C(=O)c1ccc(N2CCC([C@H]3C[C@H]3CN(C)C(=O)[C@](O)(c3ccccc3)C(F)(F)F)CC2)nc1Cl", "Emax", 64],
  ["COc1cccc([C@@](O)(C(=O)N(C)C[C@@H]2C[C@@H]2CC2CCN(c3ccc(C(=O)N(C)C)c(Cl)n3)CC2)C(F)(F)F)c1", "Emax", 44],
  ["CN(C)C(=O)c1ccc(N2CCC(C)(CCCN(C)C(=O)[C@@]3(c4ccccc4)CCCO3)CC2)nc1Cl", "Emax", 67]
]}

* * *

- assay-system: GST tagged LXRbeta LBD (ligand binding domain) (Homo sapiens)
- Construct: purchased Invitrogen pv4658.pps
- assay-protocol: LanthaScreen TR-FRET Liver X Receptor Coactivator Assay, LXR beta-LBD (co-activator recruitment; IP and % Emax relative to T0901317)
- Type: biochemical
- conditions: efficacy at max dose in relation to reference T0901317, LXR beta-LBD; read-out: LXR beta actiivty at max dose (%)

{"columns": ["compound", "assay-system", "Emax [%]"],
 "data": [
  ["COc1cccc([C@@](O)(C(=O)NCC[C@H]2CC23CCN(c2ccc(C(=O)N(C)C)c(Cl)c2)CC3)C(F)(F)F)c1", "GST tagged LXRbeta LBD (ligand binding domain) (Homo sapiens)", 69],
  ["CC(C)N(C)C(=O)c1ccc(N2CCC3(CC2)C[C@@H]3CCN(C)C(=O)[C@](O)(c2ccccc2)C(F)(F)F)cc1Cl", "GST tagged LXRbeta LBD (ligand binding domain) (Homo sapiens)", 55],
  ["CN(C)C(=O)c1ccc(N2CCC([C@@H]3C[C@H]3CN(C)C(=O)[C@](O)(c3ccccc3)C(F)(F)F)CC2)cc1Cl", "GST tagged LXRbeta LBD (ligand binding domain) (Homo sapiens)", 72],
  ["CNC(=O)c1ccc(N2CCC([C@H]3C[C@H]3CNC(=O)[C@](O)(c3cccc(OC)c3)C(F)(F)F)CC2)nc1Cl", "GST tagged LXRbeta LBD (ligand binding domain) (Homo sapiens)", 36],
  ["CC(C)N(C)C(=O)c1ccc(N2CCC(CCCN(C)C(=O)[C@](O)(c3ccccc3)C(F)(F)F)CC2)cc1Cl", "GST tagged LXRbeta LBD (ligand binding domain) (Homo sapiens)", 67],
  ["COc1ccccc1[C@@]1(C(=O)N(C)CCCC2CCN(c3ccc(C(=O)N(C)C)c(Cl)n3)CC2)CCCO1", "GST tagged LXRbeta LBD (ligand binding domain) (Homo sapiens)", 93],
  ["CC(C)[C@]1(C(=O)N(C)CCCC2CCN(c3ccc(C(=O)N(C)C)c(Cl)n3)CC2)CCCO1", "GST tagged LXRbeta LBD (ligand binding domain) (Homo sapiens)", 41],
  ["COc1cccc([C@@](O)(C(=O)NC2CC(CC3CCN(c4ccc(C(=O)N(C)C)c(Cl)c4)CC3)C2)C(F)(F)F)c1 (some centres unmarked)", "GST tagged LXRbeta LBD (ligand binding domain) (Homo sapiens)", 54],
  ["CC(C)NC(=O)c1ccc(N2CCC3(CC2)C[C@H]3CCN(C)C(=O)[C@](O)(c2ccccc2)C(F)(F)F)cc1Cl", "GST tagged LXRbeta LBD (ligand binding domain) (Homo sapiens)", 31],
  ["COc1cccc([C@@](O)(C(=O)N(C)CCCC2CCN(c3ccc(C(=O)N4C(C)CCC4C)c(Cl)n3)CC2)C(F)(F)F)c1 (some centres unmarked)", "GST tagged LXRbeta LBD (ligand binding domain) (Homo sapiens)", 43],
  ["COc1cccc([C@@](O)(C(=O)NC[C@H](C)CC2CCN(c3ccc(C(=O)N(C)C)c(Cl)n3)CC2)C(F)(F)F)c1", "GST tagged LXRbeta LBD (ligand binding domain) (Homo sapiens)", 57],
  ["CN(C)C(=O)c1ccc(N2CCC(CCCCN(C)C(=O)C(O)(c3ccccc3)C(F)(F)F)CC2)cc1Cl (centres unmarked)", "GST tagged LXRbeta LBD (ligand binding domain) (Homo sapiens)", 40],
  ["CN(C)C(=O)c1ccc(N2CCC(CCCN(C)C(=O)[C@](O)(c3ccccc3)C3CCC3)CC2)nc1Cl", "GST tagged LXRbeta LBD (ligand binding domain) (Homo sapiens)", 94],
  ["CN(C)C(=O)c1ccc(N2CCC(CCCNC(=O)OCc3ccccc3)CC2)nc1Cl", "GST tagged LXRbeta LBD (ligand binding domain) (Homo sapiens)", 39],
  ["COc1cccc([C@@](O)(C(=O)NC[C@@H]2C[C@@H]2C2CCN(c3ccc(C(=O)N(C)C)c(Cl)n3)CC2)C(F)(F)F)c1", "GST tagged LXRbeta LBD (ligand binding domain) (Homo sapiens)", 38],
  ["CN(C)C(=O)c1ccc(N2CCC3(CC2)C[C@H]3CCN(C)C(=O)[C@](O)(c2ccccc2)C(F)(F)F)cc1Cl", "GST tagged LXRbeta LBD (ligand binding domain) (Homo sapiens)", 46],
  ["COc1cccc([C@@](O)(C(=O)N(C)CC[C@H]2CC23CCN(c2ccc(C(=O)N(C)C)c(Cl)c2)CC3)C(F)(F)F)c1", "GST tagged LXRbeta LBD (ligand binding domain) (Homo sapiens)", 76],
  ["CN(C)C(=O)c1ccc(N2CCC(CCCN(C)C(=O)[C@@](C)(O)c3ccccc3)CC2)nc1Cl", "GST tagged LXRbeta LBD (ligand binding domain) (Homo sapiens)", 60],
  ["CN(C)C(=O)c1ccc(N2CCC([C@@H]3C[C@H]3CN(C)C(=O)[C@@](O)(c3ccccc3)C(F)(F)F)CC2)cc1Cl", "GST tagged LXRbeta LBD (ligand binding domain) (Homo sapiens)", 65],
  ["CN(C)C(=O)c1ccc(N2CCC(CCCNC(=O)[C@@](O)(c3cccc(O)c3)C(F)(F)F)CC2)nc1Cl", "GST tagged LXRbeta LBD (ligand binding domain) (Homo sapiens)", 91],
  ["COc1cccc([C@@](O)(C(=O)N(C)CCCC2CCN(c3ncc(C(=O)N(C)C)cc3Cl)CC2)C(F)(F)F)c1", "GST tagged LXRbeta LBD (ligand binding domain) (Homo sapiens)", 32],
  ["CN(C)C(=O)c1ccc(N2CCC(CCCN(C)C(=O)[C@@]3(c4ccccc4F)CCCO3)CC2)nc1Cl", "GST tagged LXRbeta LBD (ligand binding domain) (Homo sapiens)", 82],
  ["CN(C)C(=O)c1ccc(N2CCC(CCCNC(=O)[C@@](O)(c3ccccc3)C(F)(F)F)CC2)nc1Cl", "GST tagged LXRbeta LBD (ligand binding domain) (Homo sapiens)", 101],
  ["CNC(=O)c1ccc(N2CCC3(CC2)CC3CCN(C)C(=O)[C@](O)(c2cccc(OC)c2)C(F)(F)F)nc1Cl (stereo in doubt)", "GST tagged LXRbeta LBD (ligand binding domain) (Homo sapiens)", 60],
  ["CC(C)[C@@]1(C(=O)N(C)CCCC2CCN(c3ccc(C(=O)N(C)C)c(Cl)n3)CC2)CCCO1", "GST tagged LXRbeta LBD (ligand binding domain) (Homo sapiens)", 41],
  ["COc1cccc([C@@](O)(C(=O)N(C)CC(F)CC2CCN(c3ccc(C(=O)N(C)C)c(Cl)n3)CC2)C(F)(F)F)c1 (some centres unmarked)", "GST tagged LXRbeta LBD (ligand binding domain) (Homo sapiens)", 49]
]}
